target entity: Coagulation factor XI (Homo sapiens) (UniProt P03951)
Sequence (P03951 19-387 limits assumed): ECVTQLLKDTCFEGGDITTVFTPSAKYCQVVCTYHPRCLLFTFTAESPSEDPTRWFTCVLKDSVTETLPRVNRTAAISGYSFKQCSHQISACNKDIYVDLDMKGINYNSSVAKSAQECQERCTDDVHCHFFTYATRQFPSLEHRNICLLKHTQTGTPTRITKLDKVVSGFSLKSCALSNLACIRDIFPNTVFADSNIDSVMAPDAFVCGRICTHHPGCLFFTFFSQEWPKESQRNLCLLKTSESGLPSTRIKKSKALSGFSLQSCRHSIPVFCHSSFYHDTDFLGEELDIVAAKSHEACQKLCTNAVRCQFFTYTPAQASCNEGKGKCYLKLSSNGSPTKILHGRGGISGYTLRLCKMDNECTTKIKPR
Sequence (P03951 388-625 limits assumed): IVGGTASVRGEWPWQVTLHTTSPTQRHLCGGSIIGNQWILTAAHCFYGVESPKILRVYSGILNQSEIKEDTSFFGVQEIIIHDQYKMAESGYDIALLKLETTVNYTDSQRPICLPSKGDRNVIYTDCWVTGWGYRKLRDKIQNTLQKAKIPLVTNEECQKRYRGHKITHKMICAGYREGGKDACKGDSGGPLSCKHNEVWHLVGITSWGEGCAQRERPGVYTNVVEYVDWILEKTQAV
assay procedure: FXIa inhibitor IC50 values, dose response, biochemical, hits from single-well screen (AID 721)
reported conditions: purified factor XIa enzymatic assay, fluorescence
Calls of active or inactive are those of the source. How the calls were made is not given here.

molecule	IC50
Cn1nnnc1SCC(=O)N(C1CCCCC1)C1CCCCC1	> 50 µM (inactive)
CCOC(=O)N=S(=O)(Oc1ccc([N+](=O)[O-])cc1)c1ccccc1 (configuration not stated)	> 50 µM (inactive)
COC(=O)CSc1nnc(C)n1-c1cccc(OC)c1	2.36 µM
O=C(CCSc1nnc2ccc3ccccc3n12)Nc1ccc(F)cc1	> 50 µM (inactive)
CCC1(c2ccccc2)C(=O)N(C)C(=O)N(C)C1=O	> 50 µM (inactive)
Cc1ccc(NS(=O)(=O)c2ccc(OCC(=O)N3CCOCC3)cc2)cc1	> 50 µM (inactive)
O=C(c1ccc(F)cc1)N1CCN(C(=O)c2cccnc2)CC1	> 50 µM (inactive)
COC(=O)C(Cc1c[nH]c2ccccc12)NC(C)=O (configuration not stated)	6.69 µM
Cc1ccc(N(C(=O)c2ccccn2)C2(C(=O)NC3CCCC3)CCCCC2)cc1	> 50 µM (inactive)
CCCN(CCC)C(C(=O)Nc1cccc(OC)c1)c1ccccc1 (configuration not stated)	> 50 µM (inactive)
CCC(CO)NCc1ccc(OC2CCCC2)cc1 (configuration not stated)	> 50 µM (inactive)
Cc1cccc(NC(=O)c2snc3c(=O)[nH]cnc23)c1	> 50 µM (inactive)
